assay: log P determination by HPLC on reversed-phase columns (C 18), analogous to OECD Guideline 117; assay type: physicochemical; settings: method [b]
// values below are reported logP[b]
Answer using only a numeral; do not append any unit.

Cc1cc(C)c(N2C(=O)CN(C(=O)NC(C)C)C2=O)cc1SCC(F)(F)F :: 3.38
O=C(NC1CC1)N1CC(=O)N(c2cc(SCC(F)(F)F)c(Cl)cc2Cl)C1=O :: 3.37
Cc1cc(C)c(N2C(=O)CN(C(=O)Nc3ccccn3)C2=O)cc1SCC(F)(F)F :: 3.42
CCC(C)(C)NC(=O)N1CC(=O)N(c2cc(SCC(F)(F)F)c(C)cc2F)C1=O :: 3.96
Cc1cc(Cl)c(N2C(=O)CN(C(=O)Nc3ccccn3)C2=O)cc1[S+]([O-])CC(F)(F)F (racemic) :: 2.65

Ask: Supply measured logP[b] of Cc1cc(F)c(N2C(=O)N(C(=O)NCC(F)(F)F)C(C)(C)C2=O)cc1[S+]([O-])CC(F)(F)F (racemic) in your reply.
Reply: 3.05

Ask: Dear colleague, please send me the reported logP[b] for Cc1cc(C)c(N2C(=O)CN(C(=O)Nc3cccc(Cl)c3)C2=O)cc1SCC(F)(F)F when you can.
Reply: 4.19

Ask: # return recorded logP[b] for entry Cc1cc(F)c(N2C(=O)CN(C(=O)Nc3cccnc3)C2=O)cc1SCC(F)(F)F
Reply: 2.75

* * *

logP[b] by entry:
assay: log P determination by HPLC on reversed-phase columns (C 18), analogous to OECD Guideline 117; format: physicochemical; conditions: method [b]
Note: the reply should be a number with no unit written.

Cc1cc(Cl)c(N2C(=O)CN(C(=O)Nc3cccc(Cl)c3)C2=O)cc1SCC(F)(F)F [compound 59] :: 4.28

Ask: Output logP[b] of Cc1cc(Cl)c(N2C(=O)CN(C(=O)NCC(F)(F)F)C2=O)cc1[S+]([O-])CC(F)(F)F (stereo not shown) [compound 63]
Reply: 2.58

Ask: Read the entry Cc1cc(Cl)c(N2C(=O)CN(C(=O)NC3CC3)C2=O)cc1[S+]([O-])CC(F)(F)F (stereo not shown) [compound 62] and write its reported logP[b].
Reply: 2.29

Ask: Indicate the recorded logP[b] value for this compound: Cc1cc(F)c(N2C(=O)CN(C(=O)Nc3ccc(F)cc3)C2=O)cc1[S+]([O-])CC(F)(F)F (stereo not shown) [compound 41]
Reply: 2.86

* * *

assay: log P determination by HPLC on reversed-phase columns (C 18), analogous to OECD Guideline 117; assay type: physicochemical; conditions: reversed-phase HPLC column (C 18), pH 7.8, Table 3; HPLC, neutral range, pH 7.8; read-out: logP[b]
measured-endpoint: chromatographic logP
Respond with the number and no other words.

Cc1cc(F)c(N2C(=O)CNC2=O)cc1SCC(F)(F)F :: 2.08

Ask: Note down chromatographic logP recorded for Cc1cc(F)c(N2C(=O)CNC2=S)cc1SCC(F)(F)F
Reply: 2.5

Ask: Output measured chromatographic logP for this item: Cc1cc(F)c(N2C(=O)NC(C)C2=O)cc1SCC(F)(F)F (centres unmarked)
Reply: 2.31

Ask: Report measured chromatographic logP; entry is Cc1cc(F)c(N2C(=O)CNC2=O)cc1[S+]([O-])CC(F)(F)F (centres unmarked)
Reply: 1.31

Ask: Give reported chromatographic logP value for Cc1cc(F)c(N2C(=O)NC(C)(C)C2=O)cc1SCC(F)(F)F
Reply: 2.53
